Molecular target: hSERT (Homo sapiens, UniProt P31645)
Construct: expressed in transfected cells; host or cells: HEK-293
Sequence (P31645 whole entry): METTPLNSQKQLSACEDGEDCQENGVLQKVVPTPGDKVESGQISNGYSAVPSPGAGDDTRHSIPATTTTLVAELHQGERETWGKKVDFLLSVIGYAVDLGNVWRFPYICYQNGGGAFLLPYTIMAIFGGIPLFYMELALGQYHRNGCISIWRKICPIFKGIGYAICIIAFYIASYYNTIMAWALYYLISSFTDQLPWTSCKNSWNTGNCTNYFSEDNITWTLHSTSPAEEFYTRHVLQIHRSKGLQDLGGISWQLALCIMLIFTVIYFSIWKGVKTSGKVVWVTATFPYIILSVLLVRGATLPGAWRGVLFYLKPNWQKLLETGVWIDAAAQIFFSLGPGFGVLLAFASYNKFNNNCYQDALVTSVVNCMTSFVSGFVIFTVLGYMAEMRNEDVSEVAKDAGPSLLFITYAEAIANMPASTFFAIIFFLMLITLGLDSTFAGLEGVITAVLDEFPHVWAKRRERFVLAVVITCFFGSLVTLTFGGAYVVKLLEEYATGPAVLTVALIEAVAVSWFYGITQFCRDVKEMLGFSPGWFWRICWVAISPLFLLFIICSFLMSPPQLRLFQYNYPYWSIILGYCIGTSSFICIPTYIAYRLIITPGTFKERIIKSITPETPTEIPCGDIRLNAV
Assay: hSERT membrane radioligand binding assay (3H-citalopram)
Details: hSERT membranes, 1.0 nM 3H-citalopram
measured_quantity: SERT pKi

compound	measured
c1ccc(OCc2ncccc2C2CCNCC2)cc1 [Example 2-1]	≧5.0
Fc1ccccc1OCc1ccsc1C1CCNCC1 [Example 31-1]	≧6.0
c1ccc(OCc2cnccc2C2CCNCC2)cc1 [Example 6-1]	≧6.0
